Molecular target: membrane-bound tissue factor (TF) on cells (human, UniProt P13726 33-295)
Experiment: cell-based or functional assay
PROPERTY_LABEL: % kill at 10 µg/mL, A431 cells, ADC killing assay (%)

BINDER: HuMab-TF-111-vcMMAE (antibody, IgG1, V domains shown, vcMMAE drug-linker alkylated to cysteines of the reduced antibody (positions not given), DAR 4.3 by RP-HPLC, 4.1 by HIC) VH: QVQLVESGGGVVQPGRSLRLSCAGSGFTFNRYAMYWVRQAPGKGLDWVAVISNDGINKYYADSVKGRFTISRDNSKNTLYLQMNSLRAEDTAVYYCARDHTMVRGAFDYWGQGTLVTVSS VL: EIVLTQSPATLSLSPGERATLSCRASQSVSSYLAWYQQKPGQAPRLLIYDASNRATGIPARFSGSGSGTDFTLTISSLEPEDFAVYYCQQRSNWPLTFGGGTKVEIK
OBS_VALUE: 90
//
BINDER: HuMab-TF-098-mcMMAF (antibody, IgG1, V domains shown, mcMMAF drug-linker alkylated to cysteines of the reduced antibody (positions not given), DAR 4.0 by RP-HPLC, 3.9 by HIC) VH: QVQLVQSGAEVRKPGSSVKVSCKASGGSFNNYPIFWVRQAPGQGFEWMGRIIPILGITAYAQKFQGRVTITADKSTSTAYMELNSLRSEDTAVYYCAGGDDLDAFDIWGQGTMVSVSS VL: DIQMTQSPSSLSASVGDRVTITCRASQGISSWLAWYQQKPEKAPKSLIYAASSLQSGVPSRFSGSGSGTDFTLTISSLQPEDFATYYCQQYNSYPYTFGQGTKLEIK
OBS_VALUE: 85
//
BINDER: HuMab-TF-011-vcMMAE (antibody, IgG1, V domains shown, vcMMAE drug-linker alkylated to cysteines of the reduced antibody (positions not given), DAR 3.9 by RP-HPLC, 3.9 by HIC) VH: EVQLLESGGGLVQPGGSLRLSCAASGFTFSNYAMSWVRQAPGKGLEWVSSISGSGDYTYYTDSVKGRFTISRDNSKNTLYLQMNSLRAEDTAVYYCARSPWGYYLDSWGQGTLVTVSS VL: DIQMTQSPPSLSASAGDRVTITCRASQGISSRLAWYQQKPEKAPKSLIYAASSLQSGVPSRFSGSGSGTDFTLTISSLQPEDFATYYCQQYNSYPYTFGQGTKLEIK
OBS_VALUE: 93
//
BINDER: HuMab-TF-011-mcMMAF (antibody, IgG1, V domains shown, mcMMAF drug-linker alkylated to cysteines of the reduced antibody (positions not given), DAR 3.9 by RP-HPLC, 4.1 by HIC) VH: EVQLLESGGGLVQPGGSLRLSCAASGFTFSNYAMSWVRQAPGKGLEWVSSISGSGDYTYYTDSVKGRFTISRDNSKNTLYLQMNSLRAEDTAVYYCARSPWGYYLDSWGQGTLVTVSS VL: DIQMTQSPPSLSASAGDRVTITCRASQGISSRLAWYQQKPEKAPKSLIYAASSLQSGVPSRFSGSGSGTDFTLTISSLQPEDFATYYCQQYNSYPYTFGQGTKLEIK
OBS_VALUE: 78
